experiment: Inhibition of Hepatitis C virus genotype 1b NS3/4A protease assessed as substrate cleavage using Ac-C(Eu)DDMEEAbu(COO)ASK(QSY7)-amide as substrate incubated for 30 mins prior to substrate addition by time-resolved fluorescence assay; parameters: species or system Hepatitis C virus subtype 1b
Measured IC50, listed per entry.

MOLECULE SMILES: C=C[C@@H]1C[C@]1(NC(=O)[C@@H]1C[C@@H]2CN1C(=O)[C@H](C1CCCCC1)NC(=O)O[C@@H]1C[C@H]1CCCCCc1c(nc3ccccc3c1OC1CCNCC1)O2)C(=O)NS(=O)(=O)C1(C)CC1
IC50 / nM: 0.01
//
MOLECULE SMILES: C=C[C@@H]1C[C@]1(NC(=O)[C@@H]1C[C@@H]2CN1C(=O)[C@H](C(C)(C)C)NC(=O)O[C@@H]1C[C@H]1CCCCCc1c(nc3ccccc3c1O[C@H]1C[C@H]3CC[C@@H](C1)N3CC)O2)C(=O)NS(=O)(=O)C1(C)CC1
IC50 / nM: 0.01
